Reference source for all entries: the supplement of paper PMC7125110

B1: glmS ribozyme (parent)
chain: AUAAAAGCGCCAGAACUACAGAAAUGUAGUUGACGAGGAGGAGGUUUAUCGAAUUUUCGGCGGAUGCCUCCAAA

# Variants of: B1
# experiment description: self-cleavage kobs at 2500 uM GlcN6P; higher = faster cleavage; RNA array
# measurement parameters: with glucosamine-6-phosphate
Fewer inactive variants are shown than the library holds.

[
  {
    "ordered residues": "AUAAAAACGCCAGAACUACAGAAAUGUAGUUGACGAGGAGGAGGUUUAUCGACUUUUCGGCGGAUGCUUCCAAA [G7A A53C C68U]",
    "result units": "s⁻¹",
    "readout relation": "<",
    "self-cleavage kobs at 2500 uM GlcN6P": "1e-05"
  },
  {
    "ordered residues": "AUAAAAGCGCCUGAACUACAGAAAUGUAGUUGACGAGGAGGAGGUUUAUCGAAUUUUCGGCGGAUGCCGCCAAA [A12U U69G]",
    "result units": "s⁻¹",
    "readout relation": "=",
    "self-cleavage kobs at 2500 uM GlcN6P": 0.000109
  },
  {
    "ordered residues": "AUAAAAGCGCCAGAACUACAGAAAUGUAGUUGACGAGGAGGAGGUUUCUCGAAUUUUCGGCGGAUGUCUCCAAA [A48C C67U]",
    "result units": "s⁻¹",
    "readout relation": "=",
    "self-cleavage kobs at 2500 uM GlcN6P": "5.35e-05"
  },
  {
    "ordered residues": "AUAAAAGCGCCAGAACUACAGAAAUGUAGUUGACGAGCAGGAGGUUUAUCGAAUGUUCGGCGGAUGCCUCCAAA [G38C U55G]",
    "result units": "s⁻¹",
    "readout relation": "<",
    "self-cleavage kobs at 2500 uM GlcN6P": "1e-05"
  },
  {
    "ordered residues": "AUAAAAGCGCCUGAACUACAGAAAUGUAGUUGACUAGGAGGAGGUUUAUCGAUUUUUCGGGGGACGCCUCCAAA [A12U G35U A53U C61G U65C]",
    "result units": "s⁻¹",
    "readout relation": "<",
    "self-cleavage kobs at 2500 uM GlcN6P": "1e-05"
  },
  {
    "ordered residues": "AUAAAAGCUCCAGAACUACAGAAAUGUAAUUGACUAGGAGGAGGUGUAUCGAAUUUUCGGCGGAUGCCUCCAAA [G9U G29A G35U U46G]",
    "result units": "s⁻¹",
    "readout relation": "<",
    "self-cleavage kobs at 2500 uM GlcN6P": "1e-05"
  },
  {
    "ordered residues": "AUAAAAGCGCCAGAGCUACAGAAAUGUAGUUGACGAGGAGGAGGUUUAUCGAAUGUUCGGCGGAUGCCUACAAA [A15G U55G C70A]",
    "result units": "s⁻¹",
    "readout relation": "=",
    "self-cleavage kobs at 2500 uM GlcN6P": 0.000186
  },
  {
    "ordered residues": "AUAAAAGCGCCAGAACUACAGAAAUGUAGUUGACGAGGAGUAGGUUUAUCGAAUCUUCGGCGGAUGCCUCCAAA [G41U U55C]",
    "result units": "s⁻¹",
    "readout relation": "=",
    "self-cleavage kobs at 2500 uM GlcN6P": 0.000181
  },
  {
    "ordered residues": "AUAAAAGCGCCAGAACUACAGAAAUGUAGUUGACGAGGAGGAGAUUUAUCGAAUUUUCGGCGGAUUGCUCCAAA [G44A G66U C67G]",
    "result units": "s⁻¹",
    "readout relation": "=",
    "self-cleavage kobs at 2500 uM GlcN6P": 0.00142
  },
  {
    "ordered residues": "AUAAAAGCGCCAGAACUACAGAAAUGUAGUUGACGAGGAGGAGGUUCAUCGAAUUGUCGGCGGAUGCCUCCAAA [U47C U56G]",
    "result units": "s⁻¹",
    "readout relation": "=",
    "self-cleavage kobs at 2500 uM GlcN6P": 0.00108
  },
  {
    "ordered residues": "AUAAAAGCGCCAGAACUACAGAAAUGUAGUUGACGAGGAGGAGGUUUAUCGAAUUAUCGGCGGAUCCCUCCAAA [U56A G66C]",
    "result units": "s⁻¹",
    "readout relation": "=",
    "self-cleavage kobs at 2500 uM GlcN6P": 0.000132
  },
  {
    "ordered residues": "AUAAAAGCGCCAUAACUACAGAAAUGUAGUUGACGAGGAGGAGGUUUAUCGAAUUUUCGGCGAAUGCCUCUAAA [G13U G63A C71U]",
    "result units": "s⁻¹",
    "readout relation": "<",
    "self-cleavage kobs at 2500 uM GlcN6P": "1e-05"
  },
  {
    "ordered residues": "AUAAAAUCGCCAGAACUACAGAAAUGUAGUUGACGAGGAGGAGGUCUAUCGAAUUUUCGGCGGAUGCCUGCAAA [G7U U46C C70G]",
    "result units": "s⁻¹",
    "readout relation": "<",
    "self-cleavage kobs at 2500 uM GlcN6P": "1e-05"
  },
  {
    "ordered residues": "AUAAAAGCGCCAGACCUACAGAAAUGUAGUUGACGAGGAGGAGGUUUAUCGAAUUUUCGGCGGGUGCCUCCAAA [A15C A64G]",
    "result units": "s⁻¹",
    "readout relation": "=",
    "self-cleavage kobs at 2500 uM GlcN6P": 0.00387
  },
  {
    "ordered residues": "AUAAAAGCGCUAGGACUACAGAAAUGUAGUUGACGAGGAGGAGGUUUAUCGAAUUUUCGGCGGAUGCCUGCAAA [C11U A14G C70G]",
    "result units": "s⁻¹",
    "readout relation": "=",
    "self-cleavage kobs at 2500 uM GlcN6P": 0.000303
  },
  {
    "ordered residues": "AUAAAAGCGCCAGCACUACAGAAAUGUAGUUGACGUGGAGGAGGUUUAUCGAAUUUUCUGCGGAUGCCUCCAAA [A14C A36U G59U]",
    "result units": "s⁻¹",
    "readout relation": "<",
    "self-cleavage kobs at 2500 uM GlcN6P": "1e-05"
  },
  {
    "ordered residues": "AUAAAAGCGCCAGAACUACAGAAAUGUAGUUGACGAGGAGGAGGUUUCUUGAAUUUUCGGCGGAUGCCUCCAAA [A48C C50U]",
    "result units": "s⁻¹",
    "readout relation": "<",
    "self-cleavage kobs at 2500 uM GlcN6P": "1e-05"
  },
  {
    "ordered residues": "AUAAAAGCGCCAGAACUACAGAAAUGUAGUUGACGAGGAGGAGGUUUAUCGAACUUUCGGCGGUUGCCUCCAAA [U54C A64U]",
    "result units": "s⁻¹",
    "readout relation": "=",
    "self-cleavage kobs at 2500 uM GlcN6P": "5.96e-05"
  },
  {
    "ordered residues": "AUAAAAGAGCCAGUACUACAGAAAUGUAGUUGACGAGGAGGAGGUUUAUCGAAUUUUCGGCGGAUGCCUCCAAA [C8A A14U]",
    "result units": "s⁻¹",
    "readout relation": "<",
    "self-cleavage kobs at 2500 uM GlcN6P": "1e-05"
  },
  {
    "ordered residues": "AUAAAAACGCCGGAACUACAGAAAUGUAGUUGACGAGGAGGAGGUUAAUCGAAUUUUCGGCGGAUGCCUCCAAA [G7A A12G U47A]",
    "result units": "s⁻¹",
    "readout relation": "<",
    "self-cleavage kobs at 2500 uM GlcN6P": "1e-05"
  },
  {
    "ordered residues": "AUAAAAGCGCCAGAACUACAGAAAUGUAGUUGAAGAGGAGGAGGUUUAUCGAAUUGUCGGCGGAUGCCUCCAAA [C34A U56G]",
    "result units": "s⁻¹",
    "readout relation": "<",
    "self-cleavage kobs at 2500 uM GlcN6P": "1e-05"
  },
  {
    "ordered residues": "AUAAAGGCGCCAGAACUACAGAAAUGUAGUUGACGAGUAGGAGGUUUAUCGAACUUUCGGCGGAUGCCUCCAAA [A6G G38U U54C]",
    "result units": "s⁻¹",
    "readout relation": "<",
    "self-cleavage kobs at 2500 uM GlcN6P": "1e-05"
  }
]
